The reported measurements were obtained from PubChem BioAssay AID624331.

assay: qHTS assay for re-activators of p53 using a Luc reporter: Hit Validation with no p53 Expressed; details: p53-null cells, luciferase reporter counter-screen; series mostly up to 46.1 µM
Records with an inconclusive call do not appear. Calls of active or inactive are those of the source. Calls follow the shape of the dose curve; as a rule, active = well fitted activation curve with a large enough effect; inconclusive = small, poorly fitted or top-dose-only effect; inactive = no such curve, though single readings can be large or run the other way.
Outcomes: label 1 = active, label 0 = inactive

chem_smiles=COc1ccccc1Oc1c(C)oc2c(CN(C)C)c(O)ccc2c1=O class_name="label 0"
chem_smiles=NNc1nc(NCc2ccccc2)nc(N2CCOCC2)n1 class_name="label 0"
chem_smiles=CC(/C=N/Nc1nc2ccccc2[nH]1)=C\c1ccccc1 class_name="label 1"
chem_smiles=O=c1oc(-c2ccc(O)c(O)c2)cc2cc(O)cc(O)c12 class_name="label 0"
chem_smiles=COc1ccc(C(=O)N/N=C(\C)c2ccccn2)cc1OC class_name="label 0"
chem_smiles=O=C(O)c1ccc(N/N=C/c2ccc3ncccc3c2)cc1 class_name="label 0"

###

Test: qHTS assay for re-activators of p53 using a Luc reporter: Hit Validation with no p53 Expressed
Conditions: p53-null cells, luciferase reporter counter-screen; series mostly up to 46.1 µM
Method: The p53 tumor suppressor plays a key role in suppression of tumorigenesis and in human carcinogenesis. It is frequently found inactivated in human cancers, mainly by point mutation. […] 5ul of 1000 cells per well are dispensed in all wells except column 4, into white solid-bottom TC-treated Kalypsys plates. […] Plates are incubated for 10 min at ambient room temperature and are then read on the ViewLux (Perkin Elmer) using a clear filter for a luminescent read-out.
Inconclusive results are not listed. Calls of active or inactive are those of the source. Calls follow the shape of the dose curve; as a rule, active = well fitted activation curve with a large enough effect; inconclusive = small, poorly fitted or top-dose-only effect; inactive = no such curve, though single readings can be large or run the other way.
Outcomes: 1 for active, -1 for inactive

compound=O=C1c2cccc3cc([N+](=O)[O-])cc(c23)C(=O)N1CCN1CCCC1 class_name=-1
compound=C=CCn1c(SC(F)F)nc2scc(-c3ccco3)c2c1=O class_name=-1
compound=CCN(CC)c1ccc2cc(-c3nc4ccccc4n3C)c(=O)oc2c1 class_name=-1
compound="COc1ccc([N+](=O)[O-])cc1NC(=O)C1CCCCC1C(=O)O (configuration not stated)" class_name=-1
compound=O=C(CC(=O)c1ccccc1O)c1cccc(F)c1 class_name=-1
compound=Cc1cc(C)cc(NC(=O)CSc2nnc(-c3ccccc3C)o2)c1 class_name=-1
compound="O=C(CN1C(=O)NC2(CCCc3ccccc32)C1=O)c1ccc(F)cc1 (configuration not stated)" class_name=-1
compound="CN(C)CCN(CC1CCCN(Cc2ccccc2F)C1)C(=O)c1ccc(F)cc1 (configuration not stated)" class_name=-1
compound=O=C(Nc1ccc(Br)cn1)c1cccc(-c2cc3ccccc3oc2=O)c1 class_name=-1
compound=COc1ccccc1-c1cc(C(=O)Nc2cc(C)on2)no1 class_name=-1
compound=C=CCn1c(C)cc(C(=O)CSc2nc3ccccc3o2)c1C class_name=-1
compound=CN(C)c1ccc(NC(=O)CCCc2ccccc2)cc1 class_name=-1
compound="CC1Cc2ccccc2N1C(=O)COC(=O)C1(c2ccccc2F)CCCC1 (configuration not stated)" class_name=-1
compound=Cc1ccccc1S(=O)(=O)Nc1nc2ccccc2nc1N1CCc2ccccc2C1 class_name=-1
compound=CC(C)[C@H](NC(=O)c1ccc(Cl)cc1Cl)C(=O)NNc1cccc(C(=O)O)c1 class_name=-1
compound=N#Cc1c(NC(=O)/C=C/c2ccco2)sc2c1CCCC2 class_name=-1
compound=Cc1cccc2nc(CSC(=N)N)c(Br)n12 class_name=-1
compound=CCOC(=O)c1cccc(C2=CC(=O)C[C@H](c3ccc(OC)cc3)C2)c1 class_name=-1
compound=CCCCCNC(=O)N[C@H](C(=O)O)C(C)C class_name=-1
compound=Clc1ccc(OCc2nc(-c3ccccn3)n[nH]2)cc1 class_name=-1
compound=CCN(CC(=O)NCc1cccs1)c1ccc(S(=O)(=O)N2CCOCC2)cn1 class_name=-1
compound=Cc1ccccc1-c1noc(N)c1C#N class_name=-1
compound=COc1cc(N/N=C/c2ccccc2O)ncn1 class_name=-1
compound=O=C(COc1ccccc1Cl)Nc1ccc(Cl)cn1 class_name=-1
compound=ON=C1c2cc(OCCN3CCCCC3)ccc2-c2ccc(OCCN3CCCCC3)cc21 class_name=-1
compound=O=C(CCS(=O)(=O)c1ccccc1)Nc1nc2c(s1)CCCC2 class_name=-1
compound=COCCSc1ccccc1C(=O)Nc1cc(C)ccn1 class_name=-1
compound=Cc1cccc(C(=O)OCC(=O)N2CCCCCC2)c1O class_name=-1
compound=CC(=O)c1c(C)[nH]c(C(=O)OCC(=O)c2ccc(C)s2)c1C class_name=-1
compound=Cc1cccc(-n2c(O)c(C=Nc3ccccc3N)c(=O)[nH]c2=O)c1 class_name=-1
compound=COc1ccc(-c2nnc(-c3ccc(Br)o3)o2)cc1OC class_name=-1
compound=CCN(CC)C(=O)CSC(=Nc1ccccc1F)NC#N class_name=-1
compound=Nc1nonc1-n1nnc(C(=O)N/N=C/c2ccc(OCc3cccc(Cl)c3)cc2)c1CN1CCCCC1 class_name=-1
compound=O=C(N/N=C\c1cc(Cl)ccc1O)c1ccc(S(=O)(=O)N2CCCCC2)cc1 class_name=-1
compound=Cc1cc(C(=O)COC(=O)c2ccc(O)cc2)c(C)n1CC(F)(F)F class_name=1
compound=C/C(=N\NC(=O)c1cccc(Br)c1)c1ccccn1 class_name=-1
compound=O=C(NNC1=C(C(=O)C(F)(F)F)CCC1)c1cccc(O)c1 class_name=-1
compound=O=C(COc1ccccc1[N+](=O)[O-])N/N=C/c1cccc(OC(=O)c2ccc3c(c2)OCO3)c1 class_name=-1
compound=O=C(c1cnn(-c2ccccc2)c1)c1ccccc1O class_name=-1
compound=Cc1cccc(NC(=S)NC(=O)C2CC2)c1 class_name=-1
compound=COc1ccc2[nH]c(=O)c3c(c2c1)OC(C)(C)C=C3 class_name=-1
compound=C/C(=N\NC(=O)c1ccccc1)c1ccc(NC(=O)c2cccs2)cc1 class_name=-1
compound=CCc1ccc(C(=O)Nc2nc3ccccc3[nH]2)cc1 class_name=-1
compound=Cc1ccc2nc(-c3ccc(NC(=O)CN4C(=O)c5ccccc5C4=O)cc3)sc2c1 class_name=-1
compound=Cc1nnc(SCC(=O)N2CCOCC2)c2ccccc12 class_name=-1
compound=CC(=O)Nc1cccc(C(=O)N/N=C/c2ccccc2F)c1 class_name=-1
compound=Cc1nc(SCC(=O)Nc2nccs2)c(C#N)c(C)c1C class_name=-1
